In this section we review reported IC50 values for a set of compounds.
# tested.on: HMG-CoA synthase (Rattus norvegicus)
# Construct: The livers from male Charles River CD rats (225-350 g) were homogenized; from tissue; host or cells: rat liver (male Charles River CD rats), 100,000×g supernatant, ammonium sulfate precipitate, DEAE-52 fraction
# Sequence (P17425 whole entry): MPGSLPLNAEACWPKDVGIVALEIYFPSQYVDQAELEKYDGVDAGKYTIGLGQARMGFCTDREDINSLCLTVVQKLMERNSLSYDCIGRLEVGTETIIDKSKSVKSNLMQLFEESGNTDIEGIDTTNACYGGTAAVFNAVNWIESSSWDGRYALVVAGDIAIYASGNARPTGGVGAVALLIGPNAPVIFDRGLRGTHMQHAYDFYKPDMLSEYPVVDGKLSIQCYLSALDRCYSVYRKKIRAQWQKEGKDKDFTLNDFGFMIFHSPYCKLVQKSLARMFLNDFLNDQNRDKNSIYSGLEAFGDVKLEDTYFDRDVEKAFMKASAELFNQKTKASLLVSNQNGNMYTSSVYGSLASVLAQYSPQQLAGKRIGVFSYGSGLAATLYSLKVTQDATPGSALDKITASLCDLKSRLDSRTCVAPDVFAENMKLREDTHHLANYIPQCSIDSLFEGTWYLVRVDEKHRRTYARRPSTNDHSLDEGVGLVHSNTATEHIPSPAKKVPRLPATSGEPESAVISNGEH
# test.summary: HMG-CoA synthase inhibition assay
# Assay type: biochemical
# condition.info: Table III; n is 2, R3 is H
Use nM as the unit, but write only the number.

COC(=O)c1ccc(OCCC2CC(=O)N2S(=O)(=O)c2ccc(C)cc2)cc1 (racemic) | 66

Would you kindly share the measured IC50 for Cc1ccc(S(=O)(=O)N2C(=O)CC2CCOC(c2ccccc2)c2ccccc2)cc1 (racemic) ?
61

Would you kindly share the measured IC50 for Cc1ccc(S(=O)(=O)N2C(=O)CC2CCOCc2ccccc2)cc1 (racemic) ?
90
